Target: T1, rTTP (His-Strep-TTP) (Mus musculus, UniProt P22893 1-319)
T1 sequence: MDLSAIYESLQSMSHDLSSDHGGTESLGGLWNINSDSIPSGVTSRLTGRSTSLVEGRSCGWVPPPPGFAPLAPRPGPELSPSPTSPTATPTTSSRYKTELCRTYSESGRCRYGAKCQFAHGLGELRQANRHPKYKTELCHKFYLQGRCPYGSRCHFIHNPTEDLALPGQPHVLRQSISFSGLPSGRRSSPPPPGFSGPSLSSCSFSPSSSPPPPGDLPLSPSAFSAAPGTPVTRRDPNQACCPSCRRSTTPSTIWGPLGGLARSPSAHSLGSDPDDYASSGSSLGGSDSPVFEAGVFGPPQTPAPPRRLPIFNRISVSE
Experiment: AlphaScreen competition; rTTP displacing 1 nM rHuR from 50 nM Bi-TNF; AlphaScreen: 25 mM HEPES pH 7.4, 100 mM NaCl, 0.1% BSA, room temperature; REMSA: 20 mM HEPES pH 7.5, 50 mM KCl, 0.5 ug BSA, 0.25% glycerol, room temperature, 6% native gel 0.5X TBE at 4 C
Conditions: protein: recombinant; tags: His-Strep; label: 5'-biotin; single strand
MEASUREMENT LABEL: pKi
The quantity pKi is defined as the negative base-10 logarithm of the molar concentration.

AUUAUUUAUUAUUUAUUUAUUAUUUA (ssRNA) [Bi-TNF] has a reported pKi of 11.75

The reported measurements were obtained from paper PMC3741180.
